Data credit: ChEMBL document CHEMBL1135158

assay: Volume of distribution was determined after intravenous administration at a dose 5 mg/kg to male Sprague-Dawley rats; type: ADME, organism-based; parameters: dose 5 mg/kg, route intravenous; conditions: rat, in vivo, read-out: Vz

QUERY SMILES: CN1CCN([C@H]2CC[C@@H](n3cc(-c4ccc(Oc5ccccc5)cc4)c4c(N)ncnc43)CC2)CC1
Vd: 140 L/kg

----------
assay: Area under curve was determined after oral administration at a dose 10 mg/kg to male Sprague-Dawley rats; assay type: ADME, organism-based; parameters: dose 10 mg/kg, route oral; settings: rat, in vivo

QUERY SMILES: CN1CCN([C@H]2CC[C@@H](n3cc(-c4ccc(Oc5ccccc5)cc4)c4c(N)ncnc43)CC2)CC1
AUC (µg·h/mL): 0.661

----------
experiment: Compound was evaluated for the pharmacokinetic parameter, maximum plasma concentration; type: ADME, organism-based; conditions: mouse

QUERY SMILES: Nc1ncnc2c1c(-c1ccc(Oc3ccccc3)cc1)cn2C1CCCC1
UNITS TEXT: nM
Cmax: 28

----------
What follows is a record of IC50 for Angiopoietin-1 receptor (Homo sapiens, UniProt Q02763).

QUERY SMILES: NCCn1cc(-c2ccc(Oc3ccccc3)cc2)c2c(N)ncnc21
READING QUALIFIER: >
IC50 [nM]: 50000

QUERY SMILES: CN1CCN([C@H]2CC[C@@H](n3cc(-c4ccc(Oc5ccccc5)cc4)c4c(N)ncnc43)CC2)CC1
READING QUALIFIER: =
IC50 [nM]: 250

----------
experiment: Maximum time constant was determined after oral administration at a dose 10 mg/kg to male Sprague-Dawley rats; assay type: ADME, organism-based; design: dose 10 mg/kg, route oral; details: rat, in vivo

QUERY SMILES: CN1CCN([C@H]2CC[C@@H](n3cc(-c4ccc(Oc5ccccc5)cc4)c4c(N)ncnc43)CC2)CC1
Tmax, h: 4

----------
assay: Maximum plasma concentration was determined after oral administration at a dose 10 mg/kg to male Sprague-Dawley rats; type: ADME, organism-based; set-up: dose 10 mg/kg, route oral; conditions: rat

QUERY SMILES: CN1CCN([C@H]2CC[C@@H](n3cc(-c4ccc(Oc5ccccc5)cc4)c4c(N)ncnc43)CC2)CC1
Cmax: 113 nM

----------
biological target: Tyrosine-protein kinase Fyn (Homo sapiens, UniProt P06241)
Sequence (P06241 whole entry): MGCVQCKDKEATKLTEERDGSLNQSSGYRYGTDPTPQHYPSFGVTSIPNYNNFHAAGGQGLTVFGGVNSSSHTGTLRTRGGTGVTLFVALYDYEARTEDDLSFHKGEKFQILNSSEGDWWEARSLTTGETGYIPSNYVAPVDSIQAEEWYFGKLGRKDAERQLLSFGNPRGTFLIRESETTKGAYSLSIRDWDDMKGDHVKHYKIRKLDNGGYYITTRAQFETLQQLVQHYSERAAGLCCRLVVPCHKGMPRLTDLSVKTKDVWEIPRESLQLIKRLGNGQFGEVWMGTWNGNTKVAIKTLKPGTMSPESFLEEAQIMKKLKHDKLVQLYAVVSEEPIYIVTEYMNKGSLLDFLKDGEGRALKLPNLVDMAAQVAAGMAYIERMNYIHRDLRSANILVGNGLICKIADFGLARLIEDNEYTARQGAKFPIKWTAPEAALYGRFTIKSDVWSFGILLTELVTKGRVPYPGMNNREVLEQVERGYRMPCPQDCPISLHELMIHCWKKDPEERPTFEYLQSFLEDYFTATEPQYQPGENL

QUERY SMILES: CN1CCN([C@H]2CC[C@H](n3cc(-c4ccc(Oc5ccccc5)cc4)c4c(N)ncnc43)CC2)CC1
EXPERIMENTAL TARGET: Tyrosine-protein kinase Fyn (Homo sapiens, UniProt P06241)
IC50: 2030 nM
--
QUERY SMILES: CN1CCN([C@H]2CC[C@@H](n3cc(-c4ccc(Oc5ccccc5)cc4)c4c(N)ncnc43)CC2)CC1
EXPERIMENTAL TARGET: Tyrosine-protein kinase Fyn (Homo sapiens, UniProt P06241)
IC50: 59 nM

----------
target: Tyrosine-protein kinase Lyn (Homo sapiens)
Sequence (P07948 whole entry): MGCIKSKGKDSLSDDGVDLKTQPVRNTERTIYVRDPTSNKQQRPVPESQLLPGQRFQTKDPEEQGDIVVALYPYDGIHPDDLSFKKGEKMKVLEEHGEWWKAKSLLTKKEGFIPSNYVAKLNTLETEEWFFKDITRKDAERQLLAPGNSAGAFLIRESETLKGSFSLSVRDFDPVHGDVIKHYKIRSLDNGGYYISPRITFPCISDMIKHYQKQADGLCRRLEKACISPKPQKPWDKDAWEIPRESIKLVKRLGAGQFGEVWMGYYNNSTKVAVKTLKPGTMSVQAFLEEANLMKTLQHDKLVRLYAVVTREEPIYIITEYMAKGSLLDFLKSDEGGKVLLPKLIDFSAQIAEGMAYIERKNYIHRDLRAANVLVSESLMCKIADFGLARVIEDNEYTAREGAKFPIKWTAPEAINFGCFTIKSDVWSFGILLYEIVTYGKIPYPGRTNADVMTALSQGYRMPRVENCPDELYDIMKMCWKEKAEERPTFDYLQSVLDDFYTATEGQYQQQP
pIC50: −log10 of the molar value.
MEASUREMENT NAME: pIC50

QUERY SMILES: CN1CCN([C@H]2CC[C@H](n3cc(-c4ccc(Oc5ccccc5)cc4)c4c(N)ncnc43)CC2)CC1
MEASUREMENT NAME: pIC50
TEST RESULT: 6.37

----------
assay: Clearance was determined after intravenous administration at a dose 5 mg/kg to male Sprague-Dawley rats; assay type: ADME, organism-based; parameters: dose 5 mg/kg, route intravenous; conditions: rat, in vivo

QUERY SMILES: CN1CCN([C@H]2CC[C@@H](n3cc(-c4ccc(Oc5ccccc5)cc4)c4c(N)ncnc43)CC2)CC1
UNITS TEXT: mL/min/kg
clearance: 88.3
